# assayed-target: Cannabinoid receptor 2 (Homo sapiens)
# method-summary: Antagonist activity at human CB2-receptor expressed in CHO-K1 cells coexpressing G-alpha16 at 10 uM pre-incubated for 10 mins and later treated with 100 nM CB-receptor agonist, CP55940 by Fluo-4-AM dye based calcium mobilization assay
# Assay type: functional, cell-based
assay-metric: inhibition

| test-smiles | observed-result |
| --- | --- |
| O=C(NC12CC3CC(CC(C3)C1)C2)c1cn(CCN2CCOCC2)c2ccncc12 | < 50% |
| O=C(NC12CC3CC(CC(C3)C1)C2)c1c[nH]c2cccnc12 | < 50% |
| O=C(NC12CC3CC(CC(C3)C1)C2)c1c[nH]c2ncccc12 | > 50% |
| CCCCCn1nc(C(=O)NC23CC4CC(CC(C4)C2)C3)c2ccccc21 | < 50% |
| O=C(NC12CC3CC(CC(C3)C1)C2)c1nc2ccccc2n1CCN1CCOCC1 | > 50% |

---

# assayed-target: Cannabinoid receptor 1 (Homo sapiens)
# method-summary: Agonist activity at human CB1-receptor expressed in CHO-K1 cells coexpressing G-alpha16 by Fluo-4-AM dye based calcium mobilization assay
# Format: cell-based
# test-settings: read-out: EC50
pEC50: −log10 of the molar value.
Rule: pEC50 under 6 gives not fulfilled, otherwise fulfilled.

| test-smiles | discrete-label |
| --- | --- |
| O=C(NC12CC3CC(CC(C3)C1)C2)c1n[nH]c2ccccc12 | not fulfilled |
| O=C(NC12CC3CC(CC(C3)C1)C2)c1cc2cccnc2n1CCN1CCOCC1 | fulfilled |
| CCCCCn1cc(C(=O)NC23CC4CC(CC(C4)C2)C3)c2ncccc21 | fulfilled |
| O=C(NC12CC3CC(CC(C3)C1)C2)c1nn(CCN2CCOCC2)c2ccccc12 | fulfilled |
| O=C(NC12CC3CC(CC(C3)C1)C2)c1cn(CCN2CCOCC2)c2ncccc12 | not fulfilled |
| O=C(NC12CC3CC(CC(C3)C1)C2)c1nc2ccccc2n1CCCCCO | not fulfilled |
| CCCCCn1nc(C(=O)NC23CC4CC(CC(C4)C2)C3)c2ccccc21 | fulfilled |
| CCCCCn1cc(C(=O)NC23CC4CC(CC(C4)C2)C3)c2cnccc21 | not fulfilled |

---

# assayed-target: Cannabinoid receptor 2 (Homo sapiens, UniProt P34972)
# Sequence (P34972 whole entry): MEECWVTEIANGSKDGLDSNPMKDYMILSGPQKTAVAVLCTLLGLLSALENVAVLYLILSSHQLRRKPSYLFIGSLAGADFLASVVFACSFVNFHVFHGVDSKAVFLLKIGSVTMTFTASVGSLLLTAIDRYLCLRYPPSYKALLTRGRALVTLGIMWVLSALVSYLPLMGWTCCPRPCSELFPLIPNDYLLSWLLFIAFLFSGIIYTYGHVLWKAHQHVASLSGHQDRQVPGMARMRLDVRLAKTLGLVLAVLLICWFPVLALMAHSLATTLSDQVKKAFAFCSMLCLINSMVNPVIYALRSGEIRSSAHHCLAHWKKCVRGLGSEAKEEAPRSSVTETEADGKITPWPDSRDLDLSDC
# method-summary: Agonist activity at human CB2-receptor expressed in CHO-K1 cells coexpressing G-alpha16 by Fluo-4-AM dye based calcium mobilization assay
# Format: functional, cell-based
# test-settings: read-out: EC50
Field 'label' (enum: Yes / No). Set to Yes when EC50 is strictly under 70 nM; else No.

| test-smiles | assayed-target | discrete-label |
| --- | --- | --- |
| CCCCCn1nc(C(=O)NC23CC4CC(CC(C4)C2)C3)c2ccccc21 | Cannabinoid receptor 2 (Homo sapiens, UniProt P34972) | No |
| CCCCCn1cc(C(=O)NC23CC4CC(CC(C4)C2)C3)c2cccnc21 | Cannabinoid receptor 2 (Homo sapiens, UniProt P34972) | Yes |
| O=C(NC12CC3CC(CC(C3)C1)C2)c1nc2ccccc2n1CCCCCO | Cannabinoid receptor 2 (Homo sapiens, UniProt P34972) | Yes |
| O=C(NC12CC3CC(CC(C3)C1)C2)c1cc2cccnc2[nH]1 | Cannabinoid receptor 2 (Homo sapiens, UniProt P34972) | No |
| O=C(NC12CC3CC(CC(C3)C1)C2)c1nn(CCN2CCOCC2)c2ccccc12 | Cannabinoid receptor 2 (Homo sapiens, UniProt P34972) | Yes |

---

# assayed-target: Cannabinoid receptor 1 (Homo sapiens, UniProt P21554)
# Sequence (P21554 whole entry): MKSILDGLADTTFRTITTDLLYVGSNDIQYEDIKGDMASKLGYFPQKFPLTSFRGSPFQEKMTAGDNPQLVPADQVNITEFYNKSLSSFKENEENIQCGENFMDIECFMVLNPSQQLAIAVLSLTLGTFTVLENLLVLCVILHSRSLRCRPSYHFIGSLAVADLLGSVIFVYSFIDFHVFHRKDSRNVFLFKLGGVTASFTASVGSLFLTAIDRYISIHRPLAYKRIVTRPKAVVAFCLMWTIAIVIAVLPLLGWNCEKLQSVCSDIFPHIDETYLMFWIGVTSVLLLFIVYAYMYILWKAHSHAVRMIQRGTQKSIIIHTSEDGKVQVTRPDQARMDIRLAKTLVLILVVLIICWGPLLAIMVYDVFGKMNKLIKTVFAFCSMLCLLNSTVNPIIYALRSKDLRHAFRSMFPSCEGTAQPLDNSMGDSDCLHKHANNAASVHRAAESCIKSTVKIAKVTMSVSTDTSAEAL
# method-summary: Agonist activity at human CB1-receptor expressed in CHO-K1 cells coexpressing G-alpha16 at 10 uM by Fluo-4-AM dye based calcium mobilization assay
# Assay type: cell-based
# test-settings: cho-k1, 10 µM
assay-metric: Activity

| test-smiles | observed-result |
| --- | --- |
| CCCCCn1cc(C(=O)NC23CC4CC(CC(C4)C2)C3)c2cnccc21 | > 50% |
| CCCCCn1cc(C(=O)NC23CC4CC(CC(C4)C2)C3)c2ncccc21 | > 50% |
| O=C(NC12CC3CC(CC(C3)C1)C2)c1cc2cccnc2[nH]1 | < 50% |

---

# assayed-target: UniProtKB P34972
# method-summary: Agonist activity at human CB2-receptor expressed in CHO-K1 cells coexpressing G-alpha16 assessed as maximum efficacy by Fluo-4-AM dye based calcium mobilization assay relative to CP55940
# Assay type: functional, cell-based
Field 'label' (enum: Y / N). Set to Y when Emax is strictly under 60%; else N.

| test-smiles | discrete-label |
| --- | --- |
| O=C(NC12CC3CC(CC(C3)C1)C2)c1cc2ncccc2[nH]1 | Y |
| O=C(NC12CC3CC(CC(C3)C1)C2)c1cc2cnccc2[nH]1 | N |
| O=C(NC12CC3CC(CC(C3)C1)C2)c1cn(CCN2CCOCC2)c2ncccc12 | Y |
| O=C(NC12CC3CC(CC(C3)C1)C2)c1nc2ccccc2n1CCCCCO | N |
| CCCCCn1cc(C(=O)NC23CC4CC(CC(C4)C2)C3)c2cccnc21 | N |

---

# assayed-target: Cannabinoid receptor 2 (Homo sapiens)
# method-summary: Antagonist activity at human CB2-receptor expressed in CHO-K1 cells coexpressing G-alpha16 pre-incubated for 10 mins and later treated with 100 nM CB-receptor agonist, CP55940 by Fluo-4-AM dye based calcium mobilization assay
# Assay type: functional, cell-based
# test-settings: read-out: IC50
Field 'label' (enum: 1 / 0). Set to 1 when IC50 is strictly under 80 nM; else 0.

| test-smiles | discrete-label |
| --- | --- |
| O=C(NC12CC3CC(CC(C3)C1)C2)c1c[nH]c2ncccc12 | 0 |
| O=C(NC12CC3CC(CC(C3)C1)C2)c1nc2ccccc2n1CCN1CCOCC1 | 1 |
| CCCCCn1cc(C(=O)NC23CC4CC(CC(C4)C2)C3)c2ncccc21 | 1 |
| CCCCCn1cc(C(=O)NC23CC4CC(CC(C4)C2)C3)c2cnccc21 | 0 |

---

# assayed-target: Cannabinoid receptor 2 (Homo sapiens)
# method-summary: Agonist activity at human CB2-receptor expressed in CHO-K1 cells coexpressing G-alpha16 by Fluo-4-AM dye based calcium mobilization assay
# Type: functional, cell-based
# test-settings: read-out: EC50
pEC50: −log10 of the molar value.

| test-smiles | pEC50 |
| --- | --- |
| O=C(NC12CC3CC(CC(C3)C1)C2)c1nc2ccccc2[nH]1 | 6.28 |
| CCCCCn1c(C(=O)NC23CC4CC(CC(C4)C2)C3)cc2cccnc21 | 6.04 |
| CCCCCn1c(C(=O)NC23CC4CC(CC(C4)C2)C3)cc2ncccc21 | 6.66 |
| O=C(NC12CC3CC(CC(C3)C1)C2)c1n[nH]c2ccccc12 | 7.07 |
